- tested.target: AAD1 (v1) (Sphingobium herbicidovorans, UniProt Q8KSC8)
- Construct: made in house; host or cells: E. coli BL-21 Star (DE3), plasmid pDAB3203
- Sequence (Q8KSC8 whole entry): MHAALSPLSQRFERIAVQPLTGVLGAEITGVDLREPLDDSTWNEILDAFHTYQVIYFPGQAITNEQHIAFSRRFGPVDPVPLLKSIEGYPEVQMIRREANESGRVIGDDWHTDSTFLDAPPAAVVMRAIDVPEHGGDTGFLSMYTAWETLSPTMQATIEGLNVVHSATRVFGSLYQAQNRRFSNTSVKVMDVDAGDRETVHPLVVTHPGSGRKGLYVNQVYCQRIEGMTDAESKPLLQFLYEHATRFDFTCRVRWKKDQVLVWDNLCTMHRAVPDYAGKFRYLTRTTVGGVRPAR
- protocol.details: Colorimetric phenol detection assay of AAD1 (v1) activity (purified enzyme or E. coli extract)
- Type: biochemical
- details: Table 4; substrate 1 mM; 10 μg purified AAD1 (v1) per 0.16 ml assay
outcome.measure: A510, AAD1 (10x)

> print(dat)
                                   compound  recorded.measurement
1  CC(Oc1ccc(Oc2ccc(C(F)(F)F)cn2)cc1)C(=O)O (racemic) [(R,S)- fluazifop]                  2.17
2  C[C@@H](Oc1ccc(Oc2cnc3cc(Cl)ccc3n2)cc1)C(=O)O [(R)- quizalofop]                   2.1
3  CC(Oc1ccc(Oc2ncc(Cl)cc2F)cc1)C(=O)O (racemic) [(R,S)- clodinofop]                  1.98
4  C[C@@H](Oc1ccc(Oc2ccc(C#N)cc2F)cc1)C(=O)O [cyhalofop]                  1.26
5  CC(Oc1ccc(Oc2ccc(Cl)cc2Cl)cc1)C(=O)O (racemic) [(R,S)- diclofop]                 1.663
6  O=C(O)COc1ccc(Oc2ncc(C(F)(F)F)cc2Cl)cc1 [haloxyfop- oxyacetate]                 0.053
7  CC(Oc1ccc(Oc2ccc(C#N)cc2F)cc1)C(=O)O (racemic) [(R,S)- cyhalofop]                 1.815
8  O=C(O)COc1ccc(Cl)c2cccnc12 [Cloquintocet]                 0.001
9  C[C@H](Oc1ccc(Oc2ccc(C#N)cc2F)cc1)C(=O)O [(S)- cyhalofop]                 0.017
